biological target: Nuclear receptor ROR-gamma (Homo sapiens); assay: Inverse agonist activity at APC-labelled RORgammat (unknown origin) assessed as inhibition of biotinylated SRC recruitment measured after 1 hr by dual FRET assay
Sequence (P51449 whole entry): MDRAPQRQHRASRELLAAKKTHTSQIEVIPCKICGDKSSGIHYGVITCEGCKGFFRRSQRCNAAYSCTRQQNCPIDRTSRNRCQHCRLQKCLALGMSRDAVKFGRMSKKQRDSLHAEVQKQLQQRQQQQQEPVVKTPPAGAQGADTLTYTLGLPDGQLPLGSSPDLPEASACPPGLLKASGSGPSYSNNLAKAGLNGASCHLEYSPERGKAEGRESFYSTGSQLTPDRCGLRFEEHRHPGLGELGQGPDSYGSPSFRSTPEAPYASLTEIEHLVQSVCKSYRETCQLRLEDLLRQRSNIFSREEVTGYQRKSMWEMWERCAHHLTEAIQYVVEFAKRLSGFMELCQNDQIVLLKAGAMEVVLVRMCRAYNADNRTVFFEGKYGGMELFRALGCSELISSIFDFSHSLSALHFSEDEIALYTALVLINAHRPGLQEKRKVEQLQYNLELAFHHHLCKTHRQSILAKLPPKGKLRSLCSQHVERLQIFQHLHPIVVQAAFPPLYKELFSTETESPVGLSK
pIC50: −log10 of the molar value.
EXPERIMENTAL_READOUT: pIC50

a = CCS(=O)(=O)c1ccc(CC(=O)Nc2ccc(CC(=O)N3CCCc4ccc(CC(C)C)cc43)cc2)cc1
b = CS(=O)(=O)c1ccc(CC(=O)Nc2ccc(CCN3CCOc4ccc(C(O)(C(F)(F)F)C(F)(F)F)cc43)cc2)cc1
(Q) Dear colleague, could you let me know whether a or b has the lower recorded pIC50? Thanks. Lab note: record the label of whichever item you select.
(A) a
